molecular target: Env of HIV-1 strain H086.8 (HIV-1); assay: cell-based or functional assay
Could you please report measured neutralization IC50 for the items listed next?

{"binder": "γ22κ3 (antibody, V domains shown) VH: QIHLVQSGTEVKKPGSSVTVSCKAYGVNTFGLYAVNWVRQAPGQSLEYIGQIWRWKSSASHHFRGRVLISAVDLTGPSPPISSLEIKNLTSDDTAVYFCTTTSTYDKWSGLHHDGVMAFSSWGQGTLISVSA VL: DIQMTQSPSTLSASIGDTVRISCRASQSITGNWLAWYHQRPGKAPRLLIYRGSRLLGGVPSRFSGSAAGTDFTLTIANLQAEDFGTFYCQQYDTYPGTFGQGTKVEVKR", "neutralization IC50": "> 15 µg/mL"}
{"binder": "8ANC3630 (antibody, V domains shown) VH: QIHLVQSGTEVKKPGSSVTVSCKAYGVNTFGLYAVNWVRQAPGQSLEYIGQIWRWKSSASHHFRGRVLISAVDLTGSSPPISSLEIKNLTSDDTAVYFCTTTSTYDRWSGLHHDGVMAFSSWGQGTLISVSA VL: DIQMTQSPSTLSASIGDTVRISCRASQSITGGWLAWYHQRPGKAPRLLIYRGSRLLGGVPSRFSGSAAGTDFTLTIANLQAEDFGTFYCQQYDTYPGTFGQGTKVEVKR", "neutralization IC50": "0.3 µg/mL"}

In the following, a different binder is considered.
State the recorded neutralization IC50 for this entry: γ59κ5 (antibody, V domains shown) VH: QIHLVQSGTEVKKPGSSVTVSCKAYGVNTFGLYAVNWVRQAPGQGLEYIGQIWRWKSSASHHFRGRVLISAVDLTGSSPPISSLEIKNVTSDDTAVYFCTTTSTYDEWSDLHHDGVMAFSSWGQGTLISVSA VL: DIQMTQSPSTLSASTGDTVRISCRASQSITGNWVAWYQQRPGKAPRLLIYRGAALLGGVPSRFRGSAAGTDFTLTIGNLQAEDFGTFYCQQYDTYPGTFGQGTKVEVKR > 15 µg/mL
